# Test system: HCI16 (cells of a triple-negative basal-like breast cancer xenograft)
# ASSAY SUMMARY: cell viability (% of vehicle); higher = less cytotoxic;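 further: PDX cells carrying CMV promoter-driven luciferase, viability read as total photon flux per second by IVIS imaging following D-luciferin, vehicle control 0.1% DMSO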
# STUDY CONDITIONS: 10 µM; 72 h
OUTCOME MEASURE: cell viability

INSERT INTO measurements (compound, quantitative_result) VALUES
  ('COc1cc(C=CC(=O)N2CCN(CC(=O)N3CCCC3)CC2)cc(OC)c1OC.O=C(O)C=CC(=O)O [Cinepazide maleate]', 106),
  ('Br.Br.Br.Br.Br.Cc1cc(N2CCN(C3CNC(C(=O)N4CCSC4)C3)CC2)n(-c2ccccc2)n1.Cc1cc(N2CCN(C3CNC(C(=O)N4CCSC4)C3)CC2)n(-c2ccccc2)n1 (configuration not stated) [Teneligliptin hydrobromide]', 88.2),
  ('CCCCCCCCCCCCCCCC(=O)OCC=C(C)C=CC=C(C)C=CC1=C(C)CCCC1(C)C [Retinyl (Vitamin A) Palmitate]', 104),
  ('Nc1nc(=O)c2ncn(CCC(CO)CO)c2[nH]1 [Penciclovir]', 130),
  ('CC(=O)OC1(C(C)=O)CCC2C3C=C(Cl)C4=CC(=O)C5CC5C4(C)C3CCC21C (configuration not stated) [Cyproterone Acetate]', 110),
  ('COc1ccc(C=CC(=O)Nc2ccccc2C(=O)O)cc1OC [Tranilast]', 108),
  ('CCCCCCCCOc1ccccc1C(=O)Nc1ccc(C(=O)OCC[N+](C)(CC)CC)cc1.[Br-] [Otilonium Bromide]', 81.7),
  ('CC[C@]1(O)C[C@H]2CN(CCc3c([nH]c4ccccc34)[C@@](C(=O)OC)(c3cc4c(cc3OC)N(C=O)[C@H]3[C@@](O)(C(=O)OC)C(OC(C)=O)[C@]5(CC)C=CCN6CC[C@]43C65)C2)C1.O=S(=O)(O)O (some centres not stated) [Vincristine]', 200),
  ('O=C(O)COCCN1CCN(C(c2ccccc2)c2ccc(Cl)cc2)CC1 (configuration not stated) [Cetirizine]', 74.6),
  ('COC(=O)NC(C(=O)NC(Cc1ccccc1)C(O)CN(Cc1ccc(-c2ccccn2)cc1)NC(=O)C(NC(=O)OC)C(C)(C)C)C(C)(C)C.O=S(=O)(O)O (configuration not stated)', 138),
  ('CN(C)CC(c1ccc(O)cc1)C1(O)CCCCC1 (configuration not stated) [Desvenlafaxine]', 126),
  ('CCOC(=O)C1=C(C)NC(C)=C(C(=O)OCC)C1c1ccccc1C=CC(=O)OC(C)(C)C [Lacidipine]', 85.7);

###

# Test system: HCI13 (cells of an ER-positive luminal breast cancer xenograft)
# ASSAY SUMMARY: cell viability (% of vehicle); higher = less cytotoxic
# STUDY CONDITIONS: 10 µM; 72 h
OUTCOME MEASURE: cell viability

INSERT INTO assay_data (compound, target_or_test_system, quantitative_result) VALUES
  ('CN1CCc2nc(C(=O)NC3CC(C(=O)N(C)C)CCC3NC(=O)C(=O)Nc3ccc(Cl)cn3)sc2C1.Cc1ccc(S(=O)(=O)O)cc1.O (stereo not drawn) [Edoxaban tosylate monohydrate]', 'HCI13', 109),
  ('CC[C@@]1(O)C(=O)OCc2c1cc1n(c2=O)Cc2cc3c(CN(C)C)c(O)ccc3nc2-1.Cl [Topotecan HCl]', 'HCI13', 54.7),
  ('COC(=O)C(Cc1ccccc1)NC(=O)C(N)CC(=O)O (stereo not drawn) [Aspartame]', 'HCI13', 161),
  ('CCC(C)n1ncn(-c2ccc(N3CCN(c4ccc(OCC5COC(Cn6cncn6)(c6ccc(Cl)cc6Cl)O5)cc4)CC3)cc2)c1=O (stereo not drawn) [Itraconazole]', 'HCI13', 84.3),
  ('CNS(=O)(=O)CCc1ccc2[nH]cc(C3CCN(C)CC3)c2c1.Cl [Naratriptan]', 'HCI13', 86.2),
  ('CCOC(=O)c1c(CSc2ccccc2)n(C)c2cc(Br)c(O)c(CN(C)C)c12.Cl [Arbidol HCl]', 'HCI13', 64.4),
  ('CCNC1CC(N)C(OC2OC(CN)=CCC2N)C(O)C1OC1OCC(C)(O)C(NC)C1O.CCNC1CC(N)C(OC2OC(CN)=CCC2N)C(O)C1OC1OCC(C)(O)C(NC)C1O.O=S(=O)(O)O.O=S(=O)(O)O.O=S(=O)(O)O.O=S(=O)(O)O.O=S(=O)(O)O (stereo not drawn) [Netilmicin Sulfate]', 'HCI13', 98.3),
  ('N[C@@H](CCC(=O)N[C@@H](CS)C(=O)NCC(=O)O)C(=O)O [L-Glutathione Reduced]', 'HCI13', 104),
  ('CN(CCOc1ccc(CC2SC(=O)NC2=O)cc1)c1ccccn1 (stereo not drawn) [Rosiglitazone]', 'HCI13', 189),
  ('Cn1c(=O)cc(N2CCCC(N)C2)n(Cc2cc(F)ccc2C#N)c1=O (stereo not drawn) [Trelagliptin]', 'HCI13', 104),
  ('CC1(O)CC(c2nc(-c3ccc4ccc(-c5ccccc5)nc4c3)c3c(N)nccn23)C1 (stereo not drawn) [Linsitinib]', 'HCI13', 38.6),
  ('COc1cc2c(cc1Cc1cccc(Cl)c1F)c(=O)c(C(=O)O)cn2C(CO)C(C)C (stereo not drawn) [Elvitegravir (GS-9137)]', 'HCI13', 47.4),
  ('CNCC(O)c1ccc(O)c(O)c1.O=C(O)C(O)C(O)C(=O)O (stereo not drawn) [Epinephrine Bitartrate]', 'HCI13', 71.7);

Source listed as the supplement of paper PMC6992640.
